# Measurement target: Human immunodeficiency virus type 1 reverse transcriptase (Human immunodeficiency virus 1, UniProt Q72547)
Measurement name: pKi
Scale for pKi: -log10 of concentration given in mol/L; no unit attached.

Recorded pKi (molecule Nc1ncnc2c1ncn2C1COC(COP(=O)(O)OP(=O)(O)OP(=O)(O)O)C1 (stereo unspecified) ): 7.80

Data credit: ChEMBL document CHEMBL1153691
